Source of measurements: ChEMBL document CHEMBL1201862

molecular target: Ataxin-2 (Homo sapiens); test: qHTS for Inhibitors of ATXN expression.; format: functional
Hit rate of the full screen: of about 400,000 compounds, about 2,100 (0.53%) were called active. Another 14% or so got no clear call; they are omitted. No rule for the calls is given here. Only a selection was taken, and actives are over-represented in it overall.
Outcomes: T (active), F (inactive)

> print(dat)
                                   molecule  assigned.category
1  OC(CNCCc1ccc(C(F)(F)F)cc1)COc1ccc2ccccc2c1 (stereo unspecified)                  T
2  O=[N+]([O-])c1c(Nc2ccc(O)cc2)cc(Cl)c2nonc12                  T
3  COc1cc(/C=C2/CCC/C(=C\c3cc(O)c(OC)c(Cl)c3)C2=O)cc(Cl)c1O                  T
4  O=c1cc(CN2CCN(S(=O)(=O)c3ccc4c(c3)OCCO4)CC2)c2ccc(O)cc2o1                  F
5  Oc1ccc2c(c1)OCC1(O)Cc3cc(O)c(O)cc3C21 (stereo unspecified)                  T
6    C/C(=N\Nc1ccc([N+](=O)[O-])cc1)c1ccco1                  F
